# assay_summary: label from the status in PepcDB records
measured_attribute: protein production

{"columns": ["biopolymer_sequence", "data_value"],
 "data": [
  ["MIDCLVMAGGQGARMGFREKPLLSVCGQPMLLRVLSALRMACRRIAIVYSRHTPGVKRLCLSGALGAVECIEGPGSYVKDLRLGFSHISTPLLVAPADMPFLNPHHLNLFIDRALADGASIVNLSLRGRGLTGLSVFKHHRGWWRDVETNGCWALDVDTWEDFRRAGELCGGECTGEGLRLELLEHHHHHH", "failed"],
  ["MKKKILIPVFASVMALSVSSIVNADEVNDSSQNKDDKTNTELNLGEYKEVKYKVAKIKDGVAIKIREEGQVQNIAYSGDEFTVLGTQGEWVKVKVEDGEGWLATRYVDISEGVGYTNADKVNLRKDKSESSEVIEELEKGSSLLVLEDNGDWLKVKDGETEGYVKSSYISDKAPVIEEPQVNPSIDQNVDSTNNNQQNNANTNQQNNNSNVPTANSNAVQAVLNLAYSKQGCPYVWGAEGPNTFDCSGFTQYVYRNAVGKNIPRTSKAQSKYGQTVSKANLQPGDLVFFTTNGSGSVSHVGIYVGGGNMIHSPSTGKTVSVTSINSSYYTARFVTAKRIL", "failed"]
]}

----------
# assay_summary: label from the status in PepcDB records

{"columns": ["biopolymer_sequence", "protein production"],
 "data": [
  ["MFKIQEVRELIKLIDSSNIDEFEYKKDGTTIKMKKRGNEVVAVQAPVAKQAVQPVAPVEVETTVAAAQVEVPKQEEKKAVQNENLHKITSPMVGTFYSSSSSSPDTPPYVSVGDRVSKDSIVCIVEAMKLFNEIDADVDGEIVEILVNNGQLVEYGQPLFLVKA", "failed"],
  ["MNIPNLLTLFRFFLIPCFIFAFFSRSNDSLINSAIIFFIAGFTDILDGYIARKFNEITKYGTVMDPLADKLMLLTVLCCLTIKGYIPLLILLIMLAKEFSMIIIGVFLYGKNIIIPANIWGKLSTLIFYVAILFFTFSKFLGTYLLYIAILGAVVAYINYFLIFLSKYRQNATK", "failed"]
]}

----------
# assay_summary: label from the status in PepcDB records

{"columns": ["biopolymer_sequence", "protein production"],
 "data": [
  ["MDQCYFENSLSTECIIRSASRSDGCQMPKLFCQNLPPPLPPKKYAITSVPQSEKSESTPDVKLTEVFKATSHLPKHSLSTASEPSLEVSTHMNDERHKETFQVRECFGNTPNCPSSSSTNDFQANSGAIDAFCQPELDSISTCPNETVSLTTYFSVDSCMTDTYRLKYHQRPKLSFPESSGFCNNSLS", "failed"],
  ["MYAPERQQEILRLARDGGRVDVVSLAEEFQVTAETIRRDLKALDRAGLLRRVHGGAIPAGRLDFEPDLAERESTAADEKDRIARAALAELPAEGTLILDAGSTVARMAAAIPPDASLTVVTHSLPIAARLADHPGIQLHIVGGRVRHRTRAAVDAWALRAYGEIRADVAVVAANGFSVEHGLTTPDLAEAAVKRAALTAARRVVLLADSSKYAQEHFARFGALGDVDLLITDQGLTPEDAGDIERAGTEVVRA", "failed"],
  ["MGNEEEKMNADIFSYEGEGIQCVYDNKNWVMCIKNWKPNNDIENIRYLEVHHATDEQFVLLKGKAVLLAAVKADGACRIDVIPMEPYKVYNIPQGIWFNTITQKDTKLVYVQDAATTAENSEYCDMTQEELNEVKEKASACLD", "failed"]
]}

----------
# assay_summary: label from the status in PepcDB records
measured_attribute: protein production

{"columns": ["biopolymer_sequence", "measured_attribute", "data_value"],
 "data": [
  ["MGNFTFEEMNLMCIYNTGSRTGLIDSLREMRGELSPEETELRELTDSALTKLCAMTDEDFAQLELYPDFDQLEHHHHHH", "protein production", "not failed"],
  ["MVLTLDLADPAQPEHVFIVEDSRGATELKLYKSHYTIGKADSCDIRLHSIYASRQHATLVRFLTENGEVRYRLIDGDPETSRRSANGTYVNNRSITECDLKHYDQILFGADVKATYFYLSPQFRSLEHHHHHH", "protein production", "not failed"],
  ["TSLEEITKAIMADSQNKVFTEKNIEPLFAAPKTARINIVGQAPGIKAQESRLYWNDKSGDRLREWMGVDYDTFYHSGYFAVIPMDFYYPGKGKSGDLPPRKGFAQKWHQPILDLLPDIQLTILIGNYAQKYYLHQKSSVKLTDTVAHYKKYLPDYFPLVHPSPRNQIWMSRHPWFEAQVVPDLKKIIQQIIQSS", "protein production", "not failed"]
]}

----------
# assay_summary: label from the status in PepcDB records
measured_attribute: protein production

{"columns": ["biopolymer_sequence", "measured_attribute", "data_value"],
 "data": [
  ["LTRWGAFRNITLPLALPGLAAAAMFTFVMSWNEVFVASILTLKNRTLPAQILSIVAGAAGGAAPAYYKFAAAFIMTLPAMLFIFFARRYLVTMWGITL", "protein production", "failed"],
  ["MIDSIRVEGFRGLKELELSSLRRINVIVGRNNSGKSTLLEALSLFLGSSDPGTFGNVLHEILIWRGWYGIQTVDDLFYNGGDSFSISSTGKTLEALNSKHSLEFKLNGEPFYKIDRESIRRLASQAVLLARFSPKENFEFLTPLTFRRFGYAESLYSYAYERKVVKDSIKVLNEAYPEVEGFSPLLKEDNWVLYVETKYGVYPYYLMGEGFKSAMIISFLSSLLRDGVLLIDSAEAFHHPKSLKVMIQTLVRGSEKNNVQVFLTTHSLELLDLMLEMGRDGFVIYMKNVEGRIEVESIEFQRASELRESIGVDLRGFLEHHHHHH", "protein production", "not failed"],
  ["MPGRKRKLAAKTAELAPEAGEGSESTSLVGSADASASTAAGVAHTEQQEMPSGGLHESFLESIPPAASFLEELAWVESLASPSYVAYLCQMRRFDDVVAQRRLTTLQRWRQDPAYRQHVSQPIALFFLEQLCSAEFREALRHPAVAALYERQVDLYRRCYGNLLNTGESRVLR", "protein production", "not failed"],
  ["MLLSYLIYGLRNGFMVTLGGIAGFVVGAIAAFMAVPLVSGWVTDSGWRLTATVGAAVVLIALGHGLGTMIGRKVRHTVRIKPLHAVDRLIGGVVSVVVAALVMSMLAFSISSLGVPFVSQQLAESRVIRYIDDLTPTPVKSTMAQLRSTVIGDGIPKLIEGIGPVTPVPVPNESTDTPALNQAAESVLKIAGTAFECGQNQTGSGFVVSPGRVVTNAHVVAGVSQPVVEVPDGGALPGRVVYFDSQRDIAVLAVDGLQSSPLPLSADLPAGSSAAFAGYPHGGPFQSKPATVQGISTILVPDIYGNNPSPEQVYKLAGDVQPGNSGGPLLTMQGQVAGLIFAKTTTDAALGFALTMADLEPVAAQAPGLSNPVSAGQCTRK", "protein production", "failed"],
  ["NPHMWWLQDADPENNSRQASPSQESINQLVYMGFDTVVAEAALRVFGGNVQLAAQTLAHHGGSLPPDLQF", "protein production", "not failed"],
  ["KQKRMQAMIVTNHPEKVIEKIHKKLHRGATMIHDAEGTYNHERKAVLITVITRAEFNEFKQIMTQVDPSSFVSVSENVHILGRFVEIDN", "protein production", "failed"],
  ["MENIKNPKNADDCSDSISKNSHQGVDDSLNQSRSYVCSFCIRGFSNAQALGGHMNIHRRDRAKLRQKLMEDNKDDVVAESDASEVVSLDLNEQQQQQGEALTCDDHDQYVDNDISPKQKLEFWVQESKLDTNDHGKVTEASIDGSSSSHHRDIEVLDLELRLGQSVVKKKTT", "protein production", "failed"],
  ["MTSLSSKRVAETLDKLHAEAEAADRALMAEMMAQAERSGETLKDLAAKFVDEERLNYRTTYQEHADHFLAISSAYGRFLYAIARARRATRIVEFGTSMGISTIYLAAALRDNGGGRLIGSEIEPTKVARARAHLEATGLADLVDIREGDALDTLKDVGCEVDILSIDGAFSLYLPVLKLIEPRLTPGAVILGENAFAQDYLDYVRAPANGYFSRSLDIDEGRGNEFTVRVG", "protein production", "failed"],
  ["MKIEEVRFGLVKIDGKEFDHDIVIYPSGRIERRMKEISKKKHGTSHKLDPEELEKYLVEDFDVLLVGTGIYGMLSLLPESKKLVEDKEVIEKPTKEALKLLEELWGKKRILAIIHVTC", "protein production", "not failed"],
  ["MKKSNIKTLEQFKDQNYGKKGTAKRDSLEMGYDTFKIGALIQEARIEKGMTQEELAIKCGTTKSYISRIENNIKEVRISTLQKIVELGFGGQLQLSIKFLEHHHHHH", "protein production", "not failed"],
  ["MYKILEKKEIAMRNTWYKVYAPHVAKKVQPGQFVIVRAFPNGERIPLTPVMWDREEGWIVLIVFTRGKTTMRMAVELKEGDSLLNVAGPLGTPVPMEKFGKILAIGAYTGIVEVYPIAKAWQEIGNDVTTLHVTFEPMVILKEELEKAVTRHIVEPVPLNPNQDFLANMKNVSQRLKEKVRELLESEDWDLVFMVGPVGDQKQVFEVVKEYGVPMKVDLHPIMVDGTGMCGACRVTVGGEVKFACVDGPEFDAYQVDWDELIHRVGFYAKLEKLALEKYMEELKAKGVILEHHHHHH", "protein production", "failed"],
  ["MLTPLQIYFPIGVVLLVAVVLAFTMLGLANVLGPRRPSLVKQTPFECGSEPIGSARERFGVKFYVVALLFIVFDIEAIFLYPWAVLLLPDGQGYPGLGWPGFISMGIFVFTLVAGLVYVWKKGVLDWAD", "protein production", "failed"],
  ["MDKLVKYQELVKKLLTNYASDDVSDQDVEVQLILDTERNHYQWMNVGWQGLNRIYRCVIHFDIKDGKIWLQQNLTDRNPAEELVMMGVPREDIVLGLQAPYKRQYTDYGVA", "protein production", "not failed"],
  ["MVSIDTLIFQALNSSKFHPLYSPSINSINLQDDWAEKEGKEELSSILLLHRKASPPPPISALPNRNHKLQPLNLLFIDFPGQSFQQRERFRQFTASVRVYYVNDRKLNVQEGALIFFVRGVRYSLPLRELCDIYGFDNDLIGVALPGQFKDAQIFWSRFSNGIYDSKDAVHSEIRHLVLRYLVRLISSTLFCKMEPGKMRLSELLVLYHVVHDFFPDSLRFEEVDRDVNVGAVFAHHLVSLKTKPFTGRGKKLERVGSLLTPIFEHFRISFEGEELPCTALTKITSEHEELSFCPDPSLMHAAPRTRRHRGLASRSAPTQTEDEFIDPAEGLRVGSSSSALPYQLPSPPPIPMEPHVFQQYVVDSFKSVWNAIATLSR", "protein production", "failed"]
]}
